test: Cytotoxicity against human Huh7.5 cells assessed as reduction in cell viability incubated for 96 hrs by MTT assay; assay type: toxicity, cell-based, Huh-7.5; conditions: Huh7.5 cells
Classify: Fulfilled when CC50 at 96 h is strictly less than 10 µM; Not fulfilled when CC50 at 96 h is not.

Look over these answered cases.
INSERT INTO results (given_smiles, class) VALUES
  ('CN(C)CCN(C)c1ccc(C#N)c(CN2CCN(c3ccc(C(F)(F)F)cc3)CC2)c1', 'Not fulfilled'),
  ('N#Cc1ccc(NCCCn2ccnc2)cc1CN1CCN(C(c2ccc(F)cc2)c2ccc(F)cc2)CC1', 'Fulfilled'),
  ('CN(C)CCN(C)c1ccc(C#N)c(CN2CCN([C@H](c3ccccc3)c3ccc(Cl)cc3)CC2)c1', 'Fulfilled');

Next, consider the following molecule.
A record lists "CN(C)CCN(C)c1ccc(C#N)c(CN2CCN(c3ccc(Cl)cc3)CC2)c1" . Is its CC50 at 96 h below 10 µM?
Not fulfilled

###

Catalogue of concentration at 24 h values
experiment: Plasma concentration in Sprague-Dawley rat at 15 mg/kg, po administered as single dose measured up to 24 hrs by LC-MS/MS analysis; format: ADME, organism-based
Express the reported value numerically, then name its unit.

INSERT INTO results (compound, result) VALUES
  ('CN1CCCN(c2ccc(C#N)c(CN3CCN(C(c4ccccc4)c4ccc(Cl)cc4)CC3)c2)CC1 (configuration not stated)', '6.06 ng/mL');

Look at this compound and give its reported concentration at 24 h. "CN1CCCN(c2ccc(C#N)c(CN3CCN(C(c4ccc(F)cc4)c4ccc(F)cc4)CC3)c2)CC1"
4.98 ng/mL

###

experiment: Cytotoxicity against human Huh7.5 cells carrying HCV subgenomic replicons assessed as reduction in cell viability incubated for 96 hrs by MTT assay; assay type: toxicity, cell-based, Huh-7.5
Catalogue of CC50 at 96 h values
Reply with just the number (in µM).

INSERT INTO measurements (compound, units_label, numeric_result) VALUES
  ('CN1CCCN(c2ccc(C#N)c(CN3CCN(C(c4ccc(F)cc4)c4ccc(F)cc4)CC3)c2)CC1', 'µM', 3.95),
  ('CN1CCN(C(c2ccccc2)c2ccc(Cl)cc2)CC1 (stereo not given)', 'µM', 30.2),
  ('CC(C)OC(=O)[C@H](C)N[P@](=O)(OC[C@H]1O[C@@H](n2ccc(=O)[nH]c2=O)[C@](C)(F)[C@@H]1O)Oc1ccccc1', 'µM', 121);

Look at this compound and give its reported CC50 at 96 h. CN1CCCN(c2ccc(C#N)c(CN3CCN(C(c4ccccc4)c4ccc(Cl)cc4)CC3)c2)CC1 (stereo not given)
5.22

Another compound to look at: "CN(C)CCN(C)c1ccc(C#N)c(CN2CCN(c3ccc(Cl)cc3)CC2)c1"
121

###

test: Selectivity index, ratio of CC50 for cytotoxicity against human Huh7.5.1 cells to EC50 for antiviral activity against HCV infected in human Huh7.5.1 cells; type: toxicity, cell-based; conditions: read-out: Ratio CC50/EC50
PARAMETER: selectivity ratio

Here are 3 compounds together with their reported answers.
INSERT INTO measurements (given_smiles, parameter, result) VALUES
  ('CN1CCCN(c2ccc(C#N)c(CN3CCN([C@@H](c4ccccc4)c4ccc(Cl)cc4)CC3)c2)CC1', 'selectivity ratio', '> 364'),
  ('N#Cc1ccc(NCCCn2ccnc2)cc1CN1CCN(C(c2ccc(Cl)cc2)c2ccc(Cl)cc2)CC1', 'selectivity ratio', '> 182'),
  ('CN(C)CCN(C)c1ccc(C#N)c(CN2CCN(C(c3ccc(F)cc3)c3ccc(F)cc3)CC2)c1', 'selectivity ratio', 976);

In the following, a different compound is considered.
Look at this compound and give its reported selectivity ratio. "N#Cc1ccc(NCCCn2ccnc2)cc1CN1CCN(C(c2ccccc2)c2ccccc2)CC1"
> 82

###

assay: Selectivity index, ratio of CC50 for cytotoxicity against human Huh7.5.1 cells to EC50 for antiviral activity against HCV infected in human Huh7.5.1 cells; assay type: toxicity, cell-based; conditions: read-out: Ratio CC50/EC50
PARAMETER: selectivity ratio
Write the value as a bare number.

INSERT INTO measurements (compound, numeric_result) VALUES
  ('CN(C)CCN(C)c1ccc(C#N)c(CN2CCN([C@@H](c3ccccc3)c3ccc(Cl)cc3)CC2)c1', 549),
  ('CN(C)CCN(C)c1ccc(C(F)(F)F)c(CN2CCN(C(c3ccccc3)c3ccc(Cl)cc3)CC2)c1 (stereo not given)', 26),
  ('CN(C)CCN(C)c1ccc(C#N)c(CN2CCN([C@H](c3ccccc3)c3ccc(Cl)cc3)CC2)c1', 823),
  ('CN1CCCN(c2ccc(C#N)c(CN3CCN(c4ccc(Cl)cc4)CC3)c2)CC1', 87),
  ('CN(C)CCN(C)c1ccc(C#N)c(CN2CCN(Cc3ccc(F)cc3)CC2)c1', 14),
  ('CN1CCCN(c2ccc(C(F)(F)F)c(CN3CCN(C(c4ccccc4)c4ccc(Cl)cc4)CC3)c2)CC1 (stereo not given)', 15),
  ('N#Cc1ccc(NCCCn2ccnc2)cc1CN1CCN(C(c2ccccc2)c2ccc(Cl)cc2)CC1 (stereo not given)', 24),
  ('N#Cc1ccc(NCCCn2ccnc2)cc1CN1CCN(C(c2ccc(F)cc2)c2ccc(F)cc2)CC1', 36);

Look at this compound and give its reported selectivity ratio. CN(C)CCN(C)c1ccc(C#N)c(CN2CCN(C(c3ccccc3)c3ccc(Cl)cc3)CC2)c1 (stereo not given)
1410

###

assay: Cytotoxicity against human Huh7.5 cells assessed as reduction in cell viability incubated for 96 hrs by MTT assay; assay type: toxicity, cell-based, Huh-7.5; settings: Huh7.5 cells
Catalogue of CC50 at 96 h values
Reply with just the number (in µM).

INSERT INTO measurements (compound, parameter, numeric_result) VALUES
  ('CC(c1ccccc1)N1CCN(Cc2cc(N(C)CCN(C)C)ccc2C#N)CC1 (stereo not given)', 'CC50 at 96 h', 44.1),
  ('CN(C)CCN(C)c1ccc(C#N)c(CN2CCN(C(c3ccc(Cl)cc3)c3ccc(Cl)cc3)CC2)c1', 'CC50 at 96 h', 3.33),
  ('CN1CCCN(c2ccc(C#N)c(CN3CCN(c4ccc(Cl)cc4)CC3)c2)CC1', 'CC50 at 96 h', 9.59),
  ('N#Cc1ccc(NCCCn2ccnc2)cc1CN1CCN(C(c2ccccc2)c2ccc(Cl)cc2)CC1 (stereo not given)', 'CC50 at 96 h', 5.38),
  ('CN1CCCN(c2ccc(C#N)c(CN3CCN(C(c4ccccc4)c4ccc(Cl)cc4)CC3)c2)CC1 (stereo not given)', 'CC50 at 96 h', 7.34);

In the following, a different compound is considered.
Look at this compound and give its reported CC50 at 96 h. "CN1CCCN(c2ccc(C(F)(F)F)c(CN3CCN(C(c4ccc(F)cc4)c4ccc(F)cc4)CC3)c2)CC1"
1.45

###

assay: Cytotoxicity against human Huh7.5 cells assessed as reduction in cell viability incubated for 96 hrs by MTT assay; format: toxicity, cell-based, Huh-7.5; conditions: Huh7.5 cells
PARAMETER: CC50 at 96 h (µM)
Reply with just the number (in µM).

Here are 5 compounds together with their reported answers.
INSERT INTO results (compound, numeric_result) VALUES
  ('CN(C)CCN(C)c1ccc(C#N)c(CN2CCN(Cc3ccc(Cl)cc3)CC2)c1', 18.1),
  ('CN1CCCN(c2ccc(C(F)(F)F)c(CN3CCN(c4ccc(Cl)cc4)CC3)c2)CC1', 2.56),
  ('CN(C)CCN(C)c1ccc(C#N)c(CN2CCN([C@@H](c3ccccc3)c3ccc(Cl)cc3)CC2)c1', 8.78),
  ('COCCOc1ccc(C#N)c(CN2CCN(c3ccc(C(F)(F)F)cc3)CC2)c1', 2.97),
  ('CN(C)CCN(C)c1ccc(C#N)c(CN2CCN(C(c3ccc(F)cc3)c3ccc(F)cc3)CC2)c1', 7.81);

Look at this compound and give its reported CC50 at 96 h. CNCCN(C)CCN(C)c1ccc(C#N)c(CN2CCN(C(c3ccccc3)c3ccc(Cl)cc3)CC2)c1 (centres undefined)
4.71

Another compound to look at: "CN1CCCN(c2ccc(C#N)c(CN3CCN(C(=O)c4ccc(Cl)cc4)CC3)c2)CC1"
9.7

###

assay: Cytotoxicity against human Huh7.5 cells assessed as reduction in cell viability incubated for 96 hrs by MTT assay; format: toxicity, cell-based, Huh-7.5; settings: Huh7.5 cells
Catalogue of CC50 at 96 h values

Here are 3 compounds together with their reported answers.
INSERT INTO measurements (compound, result) VALUES
  ('N#Cc1ccc(NCCCn2ccnc2)cc1CN1CCN(C(c2ccccc2)c2ccccc2)CC1', '> 20 µM'),
  ('CN(C)CCN(C)c1ccc(C#N)c(CN2CCN(C(c3ccccc3)c3ccccc3)CC2)c1', '> 20 µM'),
  ('CC(C)OC(=O)[C@H](C)N[P@](=O)(OC[C@H]1O[C@@H](n2ccc(=O)[nH]c2=O)[C@](C)(F)[C@@H]1O)Oc1ccccc1 [SOFOSBUVIR]', '> 200 µM');

Look at this compound and give its reported CC50 at 96 h. "N#Cc1ccc(NCCCn2ccnc2)cc1CN1CCN(C(c2ccc(Cl)cc2)c2ccc(Cl)cc2)CC1"
> 20 µM
